# System: ACVRL1
# CONDITION: concentration: 1 μM, replicates: in singlicate; n = 1;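 also: KINOMEscan kinase panel screen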

{"SMILES STR": "Cc1c2ccc(N(C)c3ccnc(Nc4cccc(S(N)(=O)=O)c4)n3)cc2nn1Cc1ccccc1.Cl.Cl", "SUBJECT OF TEST": "ACVRL1", "%Inh (%)": 12}
{"SMILES STR": "O=C(NOCC1CC1)c1ccc(F)c(F)c1Nc1ccc(I)cc1Cl", "SUBJECT OF TEST": "ACVRL1", "%Inh (%)": 0}
{"SMILES STR": "Cn1cc(-c2ccc3c(c2)CCN3C(=O)Cc2ccccc2Cl)c2c(N)ncnc21", "SUBJECT OF TEST": "ACVRL1", "%Inh (%)": 3}
{"SMILES STR": "COC(=O)Nc1nc2cc(Oc3ccc(NC(=O)Nc4cc(F)ccc4F)cc3)ccc2[nH]1.Cl", "SUBJECT OF TEST": "ACVRL1", "%Inh (%)": 0}
{"SMILES STR": "O=c1cc(N2CCOCC2)nc2n(Cc3cccc(Cl)c3Cl)c(C3CC3)nn12", "SUBJECT OF TEST": "ACVRL1", "%Inh (%)": 9}
{"SMILES STR": "O=C1Cc2cc(Nc3nc(NCc4cccc(S(=O)(=O)C(F)(F)F)c4)ncc3C(F)(F)F)ccc2N1", "SUBJECT OF TEST": "ACVRL1", "%Inh (%)": 0}
{"SMILES STR": "NS(=O)(=O)c1cccc(-c2ccc3nccc(-c4cccc(S(N)(=O)=O)c4)c3c2)c1", "SUBJECT OF TEST": "ACVRL1", "%Inh (%)": 0}
{"SMILES STR": "Cn1ccc2ncnc(Oc3ccc(NC(=O)Nc4ccncc4)c(Cl)c3)c21", "SUBJECT OF TEST": "ACVRL1", "%Inh (%)": 4}

----------
# System: SRMS
# CONDITION: concentration: 1 μM, replicates: in singlicate; n = 1

{"SMILES STR": "O=C1Cc2cc(Nc3nc(NCc4cccc(S(=O)(=O)C(F)(F)F)c4)ncc3C(F)(F)F)ccc2N1", "%Inh, %": 0}
{"SMILES STR": "CN1c2ccc(CNc3ccc(F)cc3)cc2-c2c(cnn2C)S1(=O)=O", "%Inh, %": 0}
{"SMILES STR": "CN1c2ccc(NCc3ccc(F)cc3)cc2-c2c(cnn2C)S1(=O)=O", "%Inh, %": 0}
{"SMILES STR": "COc1ccc(S(=O)(=O)NC2CCN(c3cc(C)nc(Nc4cccc(C#N)c4)n3)CC2)cc1.O=C(O)C(F)(F)F", "%Inh, %": 0}
{"SMILES STR": "Nc1nccc(-c2c(-c3ccc(F)cc3)ncn2C2CCN(CC(F)(F)F)CC2)n1", "%Inh, %": 0}
{"SMILES STR": "Cc1ccc(NC(=O)c2ccnc(N3CCN(C)CC3)c2)cc1-c1ccc(C(=O)NCC2CC2)cc1", "%Inh, %": 3}
{"SMILES STR": "O=C(NCCCN1CCOCC1)c1cccc(Nc2nccc(Nc3ccc(Oc4ccccc4)cc3)n2)c1", "%Inh, %": 97.5}
{"SMILES STR": "N#Cc1c(N2CCOCC2)sc(-c2ccn[nH]2)c1-c1ccc(Cl)cc1", "%Inh, %": 0}

----------
# Test system: JAK3(JH1domain-catalytic)
# CONDITION: concentration: 1 μM, replicates: in singlicate; n = 1

{"MOLECULE": "Cc1cn2c(=O)cc(N3CCOCC3)nc2n1Cc1cccc(Cl)c1Cl", "%Inh": "0%"}
{"MOLECULE": "O=C(NCCCN1CCOCC1)c1cccc(Nc2nccc(Nc3ccc(Oc4ccccc4)cc3)n2)c1", "%Inh": "0%"}
{"MOLECULE": "Cc1c(Cn2c(C)nn3c(=O)cc(N4CCOC(C)C4)nc23)cccc1C(F)(F)F (stereo not drawn)", "%Inh": "38%"}
{"MOLECULE": "c1ccc(-c2n[nH]cc2-c2ccnc3ccccc23)nc1", "%Inh": "0%"}
{"MOLECULE": "O=C(NCCNc1ccnc(Nc2ccc(F)cc2)n1)Nc1ccccc1F", "%Inh": "0%"}
{"MOLECULE": "CCCCCc1nc2c(N)ncnc2n1CCCCC", "%Inh": "0%"}
{"MOLECULE": "CN1c2ccc(NCc3ccc(F)cc3)cc2-c2c(cnn2C)S1(=O)=O", "%Inh": "0%"}
{"MOLECULE": "O=C1NC(=O)C(N2CCc3ccccc32)=C1c1cccc(Cl)c1", "%Inh": "0%"}
{"MOLECULE": "N#Cc1c(N2CCOCC2)sc(-c2ccn[nH]2)c1-c1ccc(Cl)cc1", "%Inh": "0%"}
{"MOLECULE": "COc1ccc(Nc2ncc(C#N)c(Nc3ccccc3C(N)=O)n2)cc1N1CCN(C)CC1.Cl", "%Inh": "98.8%"}
{"MOLECULE": "c1ccc(-c2cc(-c3c[nH]nc3-c3ccccn3)ccn2)cc1", "%Inh": "0%"}
{"MOLECULE": "Nc1nc(-c2ccc3c(N)n[nH]c3c2)cc(N2CCCC2)n1", "%Inh": "0%"}
{"MOLECULE": "CC(C)Oc1ccc2c(-c3ccnc(Nc4ccc(N5CCN(C)CC5)cc4)n3)cnn2n1", "%Inh": "100%"}
{"MOLECULE": "Cc1nnc(-c2ccc(C)c(-c3ccc(C(=O)Nc4ccc(NS(C)(=O)=O)cc4)cc3)c2)o1", "%Inh": "0%"}
{"MOLECULE": "NS(=O)(=O)c1cccc(-c2ccc3nccc(-c4cccc(S(N)(=O)=O)c4)c3c2)c1", "%Inh": "0%"}
{"MOLECULE": "COc1cc(Nc2nccc(N3CCC(NC(=O)c4cccc(NC(C)=O)c4)C3)n2)cc(OC)c1OC (stereo not drawn)", "%Inh": "0%"}
{"MOLECULE": "CSc1ccc(-c2cc3ncnc(SCC(=O)O)c3s2)cc1", "%Inh": "0%"}
{"MOLECULE": "O=c1cc(N2CCOCC2)nc2n(Cc3cccc(Cl)c3Cl)c(C3CC3)nn12", "%Inh": "0%"}
{"MOLECULE": "O=c1cc(N2CCOCC2)nc2n(Cc3cccc(C(F)(F)F)c3)ccn12", "%Inh": "0%"}
{"MOLECULE": "CCn1cnc2c(N)ncnc21", "%Inh": "17%"}
{"MOLECULE": "CNc1ncnc2[nH]ncc12", "%Inh": "2%"}

----------
# Test system: CSF1R-autoinhibited
# CONDITION: concentration: 1 μM, replicates: in singlicate; n = 1
OBSERVATION TYPE: %Inh (%)

{"COMPOUND": "O=C1Cc2cc(Nc3nc(NCc4cccc(S(=O)(=O)C(F)(F)F)c4)ncc3C(F)(F)F)ccc2N1", "SUBJECT OF TEST": "CSF1R-autoinhibited", "ENDPOINT RESULT": 0}
{"COMPOUND": "COc1ccc(Nc2ncc(C#N)c(Nc3ccccc3C(N)=O)n2)cc1N1CCN(C)CC1.Cl", "SUBJECT OF TEST": "CSF1R-autoinhibited", "ENDPOINT RESULT": 67}
{"COMPOUND": "COc1cc2c(cc1OC[C@@H](O)CO)ncc1c3ccc(C#N)cc3[nH]c21", "SUBJECT OF TEST": "CSF1R-autoinhibited", "ENDPOINT RESULT": 96.6}
{"COMPOUND": "NCC(NC(=O)c1cc(-c2cn[nH]c2)c(-c2ccnc3[nH]ccc23)s1)c1ccccc1.O=C(O)C(F)(F)F.O=C(O)C(F)(F)F (centres unmarked)", "SUBJECT OF TEST": "CSF1R-autoinhibited", "ENDPOINT RESULT": 0}
{"COMPOUND": "CC(C)(C)n1cnc2c(N)ncnc21", "SUBJECT OF TEST": "CSF1R-autoinhibited", "ENDPOINT RESULT": 28}
{"COMPOUND": "c1ccc(-c2cc(-c3c[nH]nc3-c3ccccn3)ccn2)cc1", "SUBJECT OF TEST": "CSF1R-autoinhibited", "ENDPOINT RESULT": 26}
{"COMPOUND": "Cn1ccc2ncnc(Oc3ccc(NC(=O)Nc4ccncc4)c(Cl)c3)c21", "SUBJECT OF TEST": "CSF1R-autoinhibited", "ENDPOINT RESULT": 0}
{"COMPOUND": "COc1cc2ncn(-c3cc(OCc4sccc4Cl)c(C(N)=O)s3)c2cc1OC", "SUBJECT OF TEST": "CSF1R-autoinhibited", "ENDPOINT RESULT": 0}

----------
# System: PRKD2
# CONDITION: concentration: 1 μM, replicates: in singlicate; n = 1
As shown below, each of these compounds has a reported %Inh value.

{"SMILES STR": "CC(C)(C)n1cnc2c(N)ncnc21", "%Inh": "13%"}
{"SMILES STR": "O=C(Nc1n[nH]c2cc(-c3cccc(F)c3)ccc12)C1CC1", "%Inh": "0%"}
{"SMILES STR": "Fc1ccc(-c2ncn(CCCN3CCOCC3)c2-c2ccccn2)cc1", "%Inh": "31%"}
{"SMILES STR": "CC(=O)Nc1ccc(COc2ccc(Nc3ccnc4cc(-c5ccccn5)ccc34)cc2)cc1.Cl", "%Inh": "14%"}
{"SMILES STR": "O=c1cc(N2CCOCC2)nc2n(Cc3cccc4ccccc34)ccn12", "%Inh": "0%"}
{"SMILES STR": "Cn1cc(-c2ccc3c(c2)CCN3C(=O)Cc2ccccc2Cl)c2c(N)ncnc21", "%Inh": "47%"}
{"SMILES STR": "Nc1nc(-c2ccc3c(N)n[nH]c3c2)cc(N2CCCC2)n1", "%Inh": "0%"}

Data origin: paper PMC5540273
